# System: UACC-257 melanoma
# method: NCI-60 one-dose screen, 48 h (100 = growth as untreated, 0 = no growth, -100 = all killed)
# details: 10 µM unless noted
About 83,000 compounds went through this panel and 20% of them were active in at least one assay; those are over-represented in the sample as a whole.
Response field label takes TRUE when growth is strictly below 80% and FALSE in all other cases.

Solved entries:
1) O=C(O)c1ccccc1C(=O)OC1CCCC2CCCC21 (stereo unspecified)
FALSE
2) COc1ccc(-c2nnc(COc3ccc(NC(=O)Nc4cc(C(F)(F)F)cc(C(F)(F)F)c4)cc3F)o2)cc1
TRUE
3) O=C(OCCBr)c1ccc(Cl)c([N+](=O)[O-])c1
FALSE
4) CCN(CC)CCNc1ccc(Cl)cc1Cl
FALSE
5) C=C(C)[C@H]1CC/C(C)=C/CC[C@]2(C)O[C@H]2CC/C(C=O)=C\C1O (stereo partly specified)
FALSE

# TODO verify growth < 80% strictly for this compound: CC(C)[C@H]1CC[C@H]2[C@@H](CC[C@H]3[C@](C)(CN)CCC[C@]23C)C1
FALSE

Follow-up item: COc1ccc(/C=C/C(=O)Nc2cccnc2Nc2ccc(F)cc2)cc1
FALSE

Query Fc1ccc([C@@H]2CCNC[C@H]2COc2ccc3c(c2)OCO3)cc1 next
TRUE

Same question, COc1ccc2nc3cc(Cl)ccc3c(N3CCN(c4ccnc(Nc5ccc(F)cc5)n4)CC3)c2c1 this time
FALSE

Ok, now Cc1cc(C)n(C(=O)c2nn(-c3ccc(Cl)cc3)cc2O)n1
FALSE

Same question, O=C1NC(=O)/C(=C\c2ccccc2)C2=C1CCCC2 this time
TRUE

###

Catalogue of compounds with associated growth
# System: DU-145 prostate
# method: NCI-60 one-dose screen, 48 h (100 = growth as untreated, 0 = no growth, -100 = all killed)
# details: 10 µM unless noted
About 83,000 compounds went through this panel and 20% of them were active in at least one assay; those are over-represented in the sample as a whole.
Give the quantity in %, number only.

Give the measured growth of Cc1c(N(C)CS(=O)(=O)O)c(=O)n(-c2ccccc2)n1C .
112

Try this compound next: CN(C)c1ccc(/C=C\c2ccnc3ccccc23)cc1
85.1

Proceed to O=Cc1c[nH]c2ccc(NC(=O)OCc3ccccc3)cc12
113

Follow-up entry: COc1ccc(-c2c(N)noc2-c2cc(OC)c3c(c2)OCCO3)cc1
-17.2

Entry to check: CCCCCCCCCCCCCCCCN=C(CC(=O)O)C(=O)O
78.8

And the next one, CC(C)c1nc(N(C)S(C)(=O)=O)nc(-c2ccc(F)cc2)c1/C=C/[C@@H](O)C[C@@H](O)CC(=O)O ?
103

###

# Tested on: COLO 205 colon
# method: NCI-60 one-dose screen, 48 h (100 = growth as untreated, 0 = no growth, -100 = all killed)
# details: 10 µM unless noted
This is part of a sample that, as a whole, favours compounds with a hit. Of some 83,000 tested, about 20% had one in any assay.
readout-kind: growth (%)
Reply with just the number (in %).

Field request: growth | item: COC(=O)[C@]12CC[C@@H](C)[C@H](C)[C@@H]1C1=CC[C@@H]3[C@@]4(C)C[C@@H](OC(=O)c5ccco5)[C@H](O)[C@@](C)(CO)[C@@H]4[C@H](O)C[C@@]3(C)[C@]1(C)CC2
-93.3

And what about the molecule CC(=O)c1nc2ccccc2n1CCn1cc(CC(N)C(=O)O)c2ccccc21 (centres undefined) ?
103
